System: Beta-adrenergic receptor kinase 1 (Homo sapiens)
Assay notes: GRK2 binders displacing RNA aptamer, biochemical, validation, human GRK2, bead flow cytometry (AID 488806)
Conditions used: bead-bound GRK2, FAM-aptamer displacement, at 10 µM, hits give high values
Property: aptamer binding inhibition; scope: individual compounds

{"Compound": "CCCc1cc(C(N)=S)ccn1", "aptamer binding inhibition (%)": 2}
{"Compound": "COc1ccc(/C=C/C(=O)c2cc3cccc(OC)c3oc2=O)cc1", "aptamer binding inhibition (%)": 0}
{"Compound": "c1ccc2c(c1)CCOC2CNCCCN1CCCCC1 (configuration not stated)", "aptamer binding inhibition (%)": -3}
{"Compound": "Cn1c(=O)c2c(ncn2CCO)n(C)c1=O", "aptamer binding inhibition (%)": -2}
{"Compound": "O=c1cc(CN2CCN(c3cccc(Cl)c3)CC2)c2cc(O)c(-c3ccccc3)cc2o1", "aptamer binding inhibition (%)": 0}
{"Compound": "Fc1ccc(-c2cc(-c3ccccc3)nc(-n3cccn3)n2)cc1", "aptamer binding inhibition (%)": 4}
{"Compound": "Cc1ccc(-c2nnc(-c3ccc4c(c3)OCO4)o2)cc1", "aptamer binding inhibition (%)": -7}

----------
Assay notes: cytosolic pH regulators acting via V-ATPase – S. cerevisiae, pHLuorin, HTS validation (AID 504600);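 also: plate controls were DMSO for no effect and reference compound for full effect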
Conditions used: V-ATPase proton transport, at 10 µM
Active and inactive are the calls of the source. Cut-off read from the data, not from the text of the source: active = response above about 15%; inactive = the rest.
Classes used: active, inactive

{"Compound": "C[C@]12CCC3C(CC=C4C[C@@H](O)CC[C@@]43C)C1CCC2[C@]1(C)CCC(=O)O1 (some centres not stated)", "Class": "inactive"}
{"Compound": "CC1(C)O[C@@H]2C[C@H]3[C@@H]4C[C@H](F)C5=CC(=O)C=C[C@]5(C)[C@@]4(F)[C@@H](O)C[C@]3(C)[C@]2(C(=O)CO)O1", "Class": "inactive"}
{"Compound": "c1ccc(-c2ccc(C(c3ccccc3)n3ccnc3)cc2)cc1 (configuration not stated)", "Class": "active"}
{"Compound": "CC(=O)OCC(=O)[C@H]1CC[C@H]2[C@@H]3CCC4=CC(=O)CC[C@]4(C)[C@H]3CC[C@]12C", "Class": "inactive"}
{"Compound": "CC1(C)CC(=O)c2c(nc3ccccc3c2N)C1", "Class": "inactive"}
{"Compound": "COc1cc(NC(=S)NC(=O)c2cccs2)ccc1NC(=O)C(C)C", "Class": "inactive"}
{"Compound": "Cn1c(=O)c2c(ncn2CCO)n(C)c1=O", "Class": "inactive"}

----------
System: Cell division control protein 42 homolog (Homo sapiens)
Assay notes: inhibition of fluorescent GTP binding to constitutively active Cdc42 – biochemical, multiplex bead flow cytometry, Bodipy-FL-GTP, dose response (AID 1333)
Conditions used: bead-based flow cytometry; series mostly up to 100 µM
Measured potencies and affinities stand elsewhere. The source made the active and inactive calls.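 How the source made its calls: active means fitted half-maximal concentration within the tested dose range, moderate curve steepness, a statistically real signal drop, and little compound fluorescence or tag-binding interference; inactive means the rest.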
Measured quantity: outcome

{"Structure string": "CCN(CC)c1ccc(/C=c2\\sc3nnc(-c4ccccc4Cl)n3c2=O)cc1", "Measured quantity": "outcome", "Meas value": "inactive"}
{"Structure string": "CC(C)C(=O)N1CCN(c2ccccc2NC(=O)c2cccc(Cl)c2)CC1", "Measured quantity": "outcome", "Meas value": "inactive"}
{"Structure string": "Cc1[nH]c2ccccc2c1C(=O)CNc1nccs1", "Measured quantity": "outcome", "Meas value": "inactive"}
{"Structure string": "c1ccc(-c2onc3c2CCCC3)cc1", "Measured quantity": "outcome", "Meas value": "inactive"}
{"Structure string": "COc1cc(/C=N/NC(=O)Nc2cccc3nsnc23)cc(OC)c1OC", "Measured quantity": "outcome", "Meas value": "inactive"}
{"Structure string": "O=C(Nn1cc(C(=O)N2CCN(c3ccccc3F)CC2)c2ccccc2c1=O)c1cnccn1", "Measured quantity": "outcome", "Meas value": "inactive"}

Hello, the source for this data is PubChem BioAssay, in case you need it.
